Values were extracted from the supplement of paper PMC10567573.

B1: BEX1 (parent)
chain: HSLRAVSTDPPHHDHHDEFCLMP

- Variants of: B1
- experimentNotes: protein stability index of a GFP-peptide fusion (GPS, HEK-293T) (PSI 1-6); higher = more stable;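 also: lentivirally expressed fusions sorted by FACS into six bins by GFP to DsRed ratio, PSI derived from sequencing read proportions per bin multiplied by bin number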
- settings: c terminus: native
measurementKind: protein stability index

- seq: "HSLRAVSTDPPHHDHHDEFVLMP [C20V]"
  measurementKind: "protein stability index"
  endpointValue: 3.09
- seq: "VSLRAVSTDPPHHDHHDEFCLMP [H1V]"
  measurementKind: "protein stability index"
  endpointValue: 1.77
- seq: "HSLRAVSTDPPRHDHHDEFCLMP [H12R]"
  measurementKind: "protein stability index"
  endpointValue: 2.76
- seq: "HSLRAVSTDKPHHDHHDEFCLMP [P10K]"
  measurementKind: "protein stability index"
  endpointValue: 1.43
- seq: "HSLRAVSTDPPHHDHHDNFCLMP [E18N]"
  measurementKind: "protein stability index"
  endpointValue: 2.84
- seq: "HSLRAVSTDPPHHDAHDEFCLMP [H15A]"
  measurementKind: "protein stability index"
  endpointValue: 1.93
- seq: "HSLRAVSWDPPHHDHHDEFCLMP [T8W]"
  measurementKind: "protein stability index"
  endpointValue: 2.87
- seq: "HSLRAVSTDPPHHDHHDEFCLHP [M22H]"
  measurementKind: "protein stability index"
  endpointValue: 2.01
- seq: "HSLYAVSTDPPHHDHHDEFCLMP [R4Y]"
  measurementKind: "protein stability index"
  endpointValue: 2.16
- seq: "HSLGAVSTDPPHHDHHDEFCLMP [R4G]"
  measurementKind: "protein stability index"
  endpointValue: 2.64
- seq: "HSLRAVPTDPPHHDHHDEFCLMP [S7P]"
  measurementKind: "protein stability index"
  endpointValue: 2.54
- seq: "HSLCAVSTDPPHHDHHDEFCLMP [R4C]"
  measurementKind: "protein stability index"
  endpointValue: 3.21
- seq: "HSGRAVSTDPPHHDHHDEFCLMP [L3G]"
  measurementKind: "protein stability index"
  endpointValue: 2.46
- seq: "HSLRAVSTDPPHHDHHDEICLMP [F19I]"
  measurementKind: "protein stability index"
  endpointValue: 2.89
- seq: "HSLRAVSTDPPHHDHHLEFCLMP [D17L]"
  measurementKind: "protein stability index"
  endpointValue: 2.72
- seq: "HSLRAVSTKPPHHDHHDEFCLMP [D9K]"
  measurementKind: "protein stability index"
  endpointValue: 1.84
- seq: "HSLQAVSTDPPHHDHHDEFCLMP [R4Q]"
  measurementKind: "protein stability index"
  endpointValue: 1.83
- seq: "HSLRAVSTDPPHHDHHDEFQLMP [C20Q]"
  measurementKind: "protein stability index"
  endpointValue: 1.89
- seq: "HSLRLVSTDPPHHDHHDEFCLMP [A5L]"
  measurementKind: "protein stability index"
  endpointValue: 3.4
- seq: "HSLRAVSTDPPYHDHHDEFCLMP [H12Y]"
  measurementKind: "protein stability index"
  endpointValue: 2.19
- seq: "HSLRAVCTDPPHHDHHDEFCLMP [S7C]"
  measurementKind: "protein stability index"
  endpointValue: 2.82
- seq: "HSLRAVSTDPPHSDHHDEFCLMP [H13S]"
  measurementKind: "protein stability index"
  endpointValue: 2.59
- seq: "HILRAVSTDPPHHDHHDEFCLMP [S2I]"
  measurementKind: "protein stability index"
  endpointValue: 2.83
- seq: "HNLRAVSTDPPHHDHHDEFCLMP [S2N]"
  measurementKind: "protein stability index"
  endpointValue: 2.72
- seq: "HSLRAVSTDPPHHDHHDEFCLME [P23E]"
  measurementKind: "protein stability index"
  endpointValue: 3.77
- seq: "HSLRAVNTDPPHHDHHDEFCLMP [S7N]"
  measurementKind: "protein stability index"
  endpointValue: 2.64
- seq: "HSLRAVSTDPPHHDHDDEFCLMP [H16D]"
  measurementKind: "protein stability index"
  endpointValue: 2.29
- seq: "HSLRAVSTDPPHHDHHDEWCLMP [F19W]"
  measurementKind: "protein stability index"
  endpointValue: 2.39
- seq: "HSLRAVSTDPPHHDHHDEFCWMP [L21W]"
  measurementKind: "protein stability index"
  endpointValue: 1.92
- seq: "HSLRAVSTDPPHHDHYDEFCLMP [H16Y]"
  measurementKind: "protein stability index"
  endpointValue: 2.61
- seq: "HSLRAVSTDPPHHDHHDEFCLMF [P23F]"
  measurementKind: "protein stability index"
  endpointValue: 2.41
- seq: "HSLRAVSTDPPHNDHHDEFCLMP [H13N]"
  measurementKind: "protein stability index"
  endpointValue: 1.91
- seq: "HSLRAVSTDPPHHDIHDEFCLMP [H15I]"
  measurementKind: "protein stability index"
  endpointValue: 2.19
- seq: "HSLRAVSTDPPHHDHHDERCLMP [F19R]"
  measurementKind: "protein stability index"
  endpointValue: 1.8
- seq: "HSLRAVSTDRPHHDHHDEFCLMP [P10R]"
  measurementKind: "protein stability index"
  endpointValue: 3.17
- seq: "HSLRAVSTDPPHHDHHDEFCLAP [M22A]"
  measurementKind: "protein stability index"
  endpointValue: 2.11
- seq: "HSLRAVSTDPPHHDHHDEFSLMP [C20S]"
  measurementKind: "protein stability index"
  endpointValue: 2.35
- seq: "HSLRAVSTDPPHHTHHDEFCLMP [D14T]"
  measurementKind: "protein stability index"
  endpointValue: 3.55
- seq: "HSLRAVSTDPPHHDHHDEFCPMP [L21P]"
  measurementKind: "protein stability index"
  endpointValue: 2.75
- seq: "HSLRAVSTDPPHHDHHDLFCLMP [E18L]"
  measurementKind: "protein stability index"
  endpointValue: 2.29
- seq: "HPLRAVSTDPPHHDHHDEFCLMP [S2P]"
  measurementKind: "protein stability index"
  endpointValue: 1.93
- seq: "HSLRAVSTDPPHHDHHDEFELMP [C20E]"
  measurementKind: "protein stability index"
  endpointValue: 2.34
- seq: "HSLRAVSTDPPHHDHPDEFCLMP [H16P]"
  measurementKind: "protein stability index"
  endpointValue: 2.78
- seq: "HFLRAVSTDPPHHDHHDEFCLMP [S2F]"
  measurementKind: "protein stability index"
  endpointValue: 3.2
- seq: "HSLRAVSTDPPHHDKHDEFCLMP [H15K]"
  measurementKind: "protein stability index"
  endpointValue: 2.5
- seq: "HSLRAVSTEPPHHDHHDEFCLMP [D9E]"
  measurementKind: "protein stability index"
  endpointValue: 1.95
- seq: "HSLRAVSTDPPHHDHHDHFCLMP [E18H]"
  measurementKind: "protein stability index"
  endpointValue: 3.57
- seq: "HCLRAVSTDPPHHDHHDEFCLMP [S2C]"
  measurementKind: "protein stability index"
  endpointValue: 2.73
- seq: "HSLRAVSFDPPHHDHHDEFCLMP [T8F]"
  measurementKind: "protein stability index"
  endpointValue: 1.87
- seq: "HSLRAVSTDPIHHDHHDEFCLMP [P11I]"
  measurementKind: "protein stability index"
  endpointValue: 2.28
- seq: "HSLRAVSTDPPHHDHHDAFCLMP [E18A]"
  measurementKind: "protein stability index"
  endpointValue: 1.58
- seq: "HSLRAVSCDPPHHDHHDEFCLMP [T8C]"
  measurementKind: "protein stability index"
  endpointValue: 2.64
- seq: "HSLRAVSTDPPHHDHHDEFGLMP [C20G]"
  measurementKind: "protein stability index"
  endpointValue: 3.08
- seq: "HSLRAVSTDPPHHDHHIEFCLMP [D17I]"
  measurementKind: "protein stability index"
  endpointValue: 2.8
- seq: "HSLRAVSTDPPHMDHHDEFCLMP [H13M]"
  measurementKind: "protein stability index"
  endpointValue: 3.31
- seq: "HSLRAVSTDPPEHDHHDEFCLMP [H12E]"
  measurementKind: "protein stability index"
  endpointValue: 2.75
- seq: "HSLRAVSTDPPHHDHHDEFCCMP [L21C]"
  measurementKind: "protein stability index"
  endpointValue: 2.63
- seq: "HSLRAVSTDPPHHDHTDEFCLMP [H16T]"
  measurementKind: "protein stability index"
  endpointValue: 2.58
- seq: "HSLRAVSTDPPHHDSHDEFCLMP [H15S]"
  measurementKind: "protein stability index"
  endpointValue: 1.8
- seq: "HSLRAVSTDPPHHDHHDEFFLMP [C20F]"
  measurementKind: "protein stability index"
  endpointValue: 3.54
- seq: "HSLRAVSTDPPHHDHHDEYCLMP [F19Y]"
  measurementKind: "protein stability index"
  endpointValue: 2.33
- seq: "HSLRAVSTDPPHKDHHDEFCLMP [H13K]"
  measurementKind: "protein stability index"
  endpointValue: 2.31
- seq: "HSARAVSTDPPHHDHHDEFCLMP [L3A]"
  measurementKind: "protein stability index"
  endpointValue: 2.02
- seq: "HSKRAVSTDPPHHDHHDEFCLMP [L3K]"
  measurementKind: "protein stability index"
  endpointValue: 2.04
- seq: "HSLRKVSTDPPHHDHHDEFCLMP [A5K]"
  measurementKind: "protein stability index"
  endpointValue: 2.07
